I'd appreciate it if you could supply AC50 values for the items below.
# studyTarget: Corticotropin-releasing factor receptor 1 (Homo sapiens); note: assay procedure not described here
# Sequence (P34998 whole entry): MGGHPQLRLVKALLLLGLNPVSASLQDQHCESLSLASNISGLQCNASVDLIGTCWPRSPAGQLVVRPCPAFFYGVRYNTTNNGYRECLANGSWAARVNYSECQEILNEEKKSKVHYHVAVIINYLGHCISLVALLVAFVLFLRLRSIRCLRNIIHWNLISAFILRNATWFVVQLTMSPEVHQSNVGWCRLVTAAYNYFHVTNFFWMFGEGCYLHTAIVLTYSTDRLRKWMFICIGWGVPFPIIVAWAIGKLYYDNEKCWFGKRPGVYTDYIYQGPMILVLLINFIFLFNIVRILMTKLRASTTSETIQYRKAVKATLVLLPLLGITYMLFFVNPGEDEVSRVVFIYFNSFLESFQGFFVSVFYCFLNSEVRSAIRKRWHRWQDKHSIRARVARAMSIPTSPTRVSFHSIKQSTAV

Some entries whose results are on file:
compoundSmiles	endpointName	observedResult
COc1ccc2cccc(CCNC(C)=O)c2c1	AC50	> 30 µM
CN(C)CCCN1c2ccccc2Sc2ccccc21	AC50	> 30 µM

AC50 reported for this compound COC(=O)[C@@H]1CC2=CC(=O)CC[C@]2(C)[C@@]23O[C@@H]2C[C@@]2(C)[C@@H](CC[C@@]24CCC(=O)O4)[C@H]13 : > 30 µM
